- ASSAY_INFO: Half life in plasma (unknown origin)
- Format: ADME, cell-free
MEASUREMENT_KIND: half-life (min)
Please state the figure in min; there is no need to write the unit.

Which half-life value belongs to O=[N+]([O-])c1ccc(Nc2ccccc2-c2ccccc2)c2nonc12 ?
37

---

For each record, write down the corresponding inhibition.
- STUDY_TARGET: c-Myc/Max (Homo sapiens) (UniProt P01106+P61244)
- ASSAY_INFO: Inhibition of His6-tagged homogeneously purified recombinant Myc bHLH-LZ domain (unknown origin)/His6-tagged Max (151 residues) (unknown origin) interaction assessed as reduction in Myc/Max/DNA ternary complex formation using fluorescently-tagged (FAM) E-Box-containing double-stranded oligonucleotide at 100 uM by EMSA relative to control
- Assay type: protein-complex assay
Please state the figure in %; there is no need to write the unit.

Which inhibition value belongs to O=[N+]([O-])c1ccc(Nc2cccc(-c3ccccc3)c2)c2nonc12 ?
20

What do we get for O=[N+]([O-])c1ccc(Nc2ccccc2Br)c2nonc12 ?
39

What do we get for O=C(O)c1cc([N+](=O)[O-])ccc1Nc1ccccc1-c1ccccc1 ?
49
